# procedure-text: MRT (0 to infinity) in Sprague-Dawley rat at 10 mg/kg, IG measured for 5760 mins by LC-MS/MS analysis
# Format: ADME, organism-based
# stated-conditions: in vivo, po
attribute-measured: MRT inf (h)
One number for each entry, in h.

Ask | Complete the entry with MRT inf for O=C(O)C1(c2ccc(-c3cc(Cl)cc(Cl)c3)c(F)c2)CC1
Reply | 36.6

###

# procedure-text: MRT (0 to infinity) in Sprague-Dawley rat at 2 mg/kg, iv measured for 5760 mins by LC-MS/MS analysis
# Format: ADME, organism-based
# stated-conditions: in vivo
attribute-measured: MRT inf (h)
Give bare numbers, in h.

Ask | Identify MRT inf associated with the compound O=C(O)C1(c2ccc(-c3cc(Cl)cc(Cl)c3)c(F)c2)CC1
Reply | 51.1

###

Assign IC50 to each entry below.
# system: Aldo-keto reductase family 1 member C2 (Homo sapiens, UniProt P52895)
# procedure-text: Inhibition of human recombinant AKR1C2 transfected in Escherichia coli BL21 (DE3) pLysS competent cells using S-tetralol as substrate assessed as inhibition of NADP+ dependent substrate oxidation incubated for 10 mins by fluorescence microplate reader assay

# example entries with known answers
compound	result
CCC(C(=O)O)c1ccc(-c2ccc(Cl)c(Cl)c2)c(C(F)(F)F)c1 (racemic)	280 nM
CCC(C(=O)O)c1ccc(-c2cccc(C(N)=O)c2)c(C(F)(F)F)c1 (racemic)	850 nM
CCC(C(=O)O)c1ccc(-c2ccc3c(c2)OCO3)c(C(F)(F)F)c1 (racemic)	370 nM
COc1cc(C(C)C(=O)O)ccc1-c1ccccc1Cl (racemic)	240 nM
COc1cc(C(C)C(=O)O)ccc1-c1ccc(C(F)(F)F)cc1 (racemic)	400 nM

For each of the compounds below, note its IC50.
1. CC(C(=O)O)c1ccc(-c2cccc(C(=O)O)c2)c(F)c1 (racemic)
2. CCC(C(=O)O)c1ccc(-c2ccc(C)c(F)c2)c(C(F)(F)F)c1 (racemic)
3. CC(C(=O)O)c1ccc(-c2ccc([N+](=O)[O-])cc2)c(C(F)(F)F)c1 (racemic)

Reply |
1: 1490 nM; 2: 610 nM; 3: 450 nM

###

# system: Aldo-keto reductase family 1 member C2 (Homo sapiens, UniProt P52895)
# Sequence (P52895 whole entry): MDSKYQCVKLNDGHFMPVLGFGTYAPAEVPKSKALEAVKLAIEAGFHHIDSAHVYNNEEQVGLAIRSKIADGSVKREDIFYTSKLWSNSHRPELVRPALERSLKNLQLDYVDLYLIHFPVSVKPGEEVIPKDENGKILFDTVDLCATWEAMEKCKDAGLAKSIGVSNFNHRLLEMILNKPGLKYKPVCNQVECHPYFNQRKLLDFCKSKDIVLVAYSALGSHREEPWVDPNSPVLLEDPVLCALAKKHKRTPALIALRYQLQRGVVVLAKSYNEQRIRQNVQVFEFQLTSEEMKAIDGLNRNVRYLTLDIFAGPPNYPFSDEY
# procedure-text: Inhibition of human recombinant AKR1C2 transfected in Escherichia coli BL21 (DE3) pLysS competent cells using S-tetralol as substrate assessed as inhibition of NADP+ dependent substrate oxidation incubated for 10 mins by fluorescence microplate reader assay
Grouping by measured IC50 is done with the following cut points: LOW (below 400 nM), MID (400 nM to below 1000 nM), HIGH (1000 nM or more)

Reference set, count: 2
compound	group
CC(C(=O)O)c1ccc(-c2ccccc2C(F)(F)F)c(F)c1 (racemic)	LOW
CC(C(=O)O)c1ccc(-c2ccc(C=O)cc2)c(C(F)(F)F)c1 (racemic)	LOW

Ask | Where would COc1cc(C(C)C(=O)O)ccc1-c1cccc([N+](=O)[O-])c1 (racemic) land among the classes by reported IC50?
Reply | HIGH

Ask | Categorize the following entry: CCC(C(=O)O)c1ccc(-c2cccc([N+](=O)[O-])c2)c(C(F)(F)F)c1 (racemic)
Reply | MID

Ask | Any idea which band CCC(C(=O)O)c1ccc(-c2cc(OC)cc(OC)c2)c(C(F)(F)F)c1 (racemic) is in?
Reply | HIGH

Origin of the recorded values: ChEMBL document CHEMBL5346950
